Recorded measurements of Binding recovery (>60%), one per entry
# TESTED_SYSTEM: T1, IL-10R1-Fc (UniProt Q13651 22-235, limits assumed)
# T1 sequence (looked up): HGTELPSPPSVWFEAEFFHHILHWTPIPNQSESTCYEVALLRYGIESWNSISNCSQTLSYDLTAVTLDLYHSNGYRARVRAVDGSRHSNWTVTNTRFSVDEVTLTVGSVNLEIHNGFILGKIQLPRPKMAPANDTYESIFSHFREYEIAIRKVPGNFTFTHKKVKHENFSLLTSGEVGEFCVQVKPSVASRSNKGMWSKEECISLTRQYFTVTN
# TEST_PROTOCOL: ELISA, IL-10R1-Fc coated
VALUE_KIND: Binding recovery (>60%)

* IL-10 Leu105Cys-R4-6 (ligand, human, UniProt P22301 19-178, looked up, R4-6 on Cys 105, mature) SPGQGTQSENSCTHFPGNLPNMLRDLRDAFSRVKTFFQMKDQLDNLLLKESLLEDFKGYLGCQALSEMIQFYLEEVMPQAENQDPDIKAHVNSLGENLKTLRLRCRRCHRFLPCENKSKAVEQVKNAFNKLQEKGIYKAMSEFDIFINYIEAYMTMKIRN | 92.3
* IL-10 Ile158Cys-R4-6 (ligand, human, UniProt P22301 19-178, looked up, R4-6 on Cys 158, mature) SPGQGTQSENSCTHFPGNLPNMLRDLRDAFSRVKTFFQMKDQLDNLLLKESLLEDFKGYLGCQALSEMIQFYLEEVMPQAENQDPDIKAHVNSLGENLKTLRLRLRRCHRFLPCENKSKAVEQVKNAFNKLQEKGIYKAMSEFDIFINYIEAYMTMKCRN | 81.7
* IL-10 Ser93Cys-R4-2 (ligand, human, UniProt P22301 19-178, looked up, R4-2 on Cys 93, mature; the row prints S in one column and Asp in the next) SPGQGTQSENSCTHFPGNLPNMLRDLRDAFSRVKTFFQMKDQLDNLLLKESLLEDFKGYLGCQALSEMIQFYLEEVMPQAENQDPDIKAHVNCLGENLKTLRLRLRRCHRFLPCENKSKAVEQVKNAFNKLQEKGIYKAMSEFDIFINYIEAYMTMKIRN | 100
